# assay remarks: clinical
# experimental parameters: human, plasma, oral
metric name: Cmax (ng/mL)
Give the quantity in ng/mL, number only.

Indicate its recorded Cmax; the compound in question is CNC(=O)c1cc(Oc2ccc(NC(=O)Nc3ccc(Cl)c(C(F)(F)F)c3)cc2)ccn1
3340

* * *

# experimental parameters: human, plasma, oral, Tmax (IQR) median, plasma, sorafenib monotherapy (day 1)
metric name: Tmax (h)
Give the quantity in h, number only.

Indicate its recorded Tmax; the compound in question is CNC(=O)c1cc(Oc2ccc(NC(=O)Nc3ccc(Cl)c(C(F)(F)F)c3)cc2)ccn1
3.7

* * *

# assay remarks: clinical
# experimental parameters: human, plasma, oral, 500 mg
metric name: AUC(0-t) (ng·h/mL)
Give the quantity in ng·h/mL, number only.

Indicate its recorded AUC(0-t); the molecule in question is CNC(=O)c1cc(Oc2ccc(NC(=O)Nc3ccc(Cl)c(C(F)(F)F)c3)cc2)ccn1
24500

* * *

# assay remarks: clinical
# experimental parameters: human, plasma, oral
metric name: Tmax (h)
Give the quantity in h, number only.

Indicate its recorded Tmax; the compound in question is CNC(=O)c1cc(Oc2ccc(NC(=O)Nc3ccc(Cl)c(C(F)(F)F)c3)cc2)ccn1
2.2
